These entries and their values trace back to patent US12268727B2.

# System: reactive oxygen species (ROS) production in corn tissue
# assayComment: ROS activity assay in corn tissue (luminol/horseradish peroxidase, RLU)
# assayContext: Table 35, single polypeptides and combinations; 5 nM polypeptide; Bt.4Q7Flg22 = 100
// reported Avg. Activity (%) Corn (5828 YX) 5 nM polypeptide per item
measuredQuantity: Avg. Activity (%) Corn (5828 YX) 5 nM polypeptide

INSERT INTO measurements (substance, recordednumber) VALUES
  ('Bt.4Q7Flg22: Flg22 polypeptide (22 amino acids) from flagellin of Bacillus thuringiensis strain 4Q7 (DRLSSGKRINSASDDAAGLAIA; listed as Bacillus thuringiensis)', 100),
  ('P spp.Flg22-B6 (GKLSSGLRINGASDDAAGLAIS)', 103.61),
  ('L spp.Flg22-L2 (EKLSSGLRINRAGDDAAGLAIS)', 113.04),
  ('A spp.Flg22-B4 (ERLSSGYRINRASDDAAGLAIS)', 53.64),
  ('NRLSSGKRINSAADDAAGLAIA [SEQ ID NO: 295]', 142.53);

* * *

# Tested on: reactive oxygen species (ROS) production in corn tissue
# assayComment: ROS activity assay in corn tissue (luminol/horseradish peroxidase, RLU)
# assayContext: Table 33; 5 nM polypeptide; RLU relative to native Bt.4Q7Flg22 = 100
measuredQuantity: Avg. Activity (%) Corn (5828 YX) 5 nM polypeptide

INSERT INTO measurements (substance, subjectoftest, recordednumber) VALUES
  ('TRLSSGLKINSAKDDAAGLQIA (listed as Pseudomonas syringae) [Flg22-PSA]', 'reactive oxygen species (ROS) production in corn tissue', 154.4),
  ('A spp.Flg22-B4 (ERLSSGYRINRASDDAAGLAIS)', 'reactive oxygen species (ROS) production in corn tissue', 78.1),
  ('NRLSSGKQINSASDDAAGLAIA (listed as Bacillus manliponensis) [SEQ ID NO: 290]', 'reactive oxygen species (ROS) production in corn tissue', 106.0),
  ('L spp.Flg22-L2 (EKLSSGLRINRAGDDAAGLAIS)', 'reactive oxygen species (ROS) production in corn tissue', 104.5),
  ('Bp.Flg22 (TRLSSGKRINSAADDAAGLAIS)', 'reactive oxygen species (ROS) production in corn tissue', 111.2),
  ('GKLSSGLRINGASDDAAGLAIS (listed as Paenibacillus sp.) [Pa.Flg22]', 'reactive oxygen species (ROS) production in corn tissue', 116.0),
  ('P spp.Flg22-B6 (GKLSSGLRINGASDDAAGLAIS)', 'reactive oxygen species (ROS) production in corn tissue', 135.3),
  ('NRLSSGKRINSAADDAAGLAIA [SEQ ID NO: 295]', 'reactive oxygen species (ROS) production in corn tissue', 134.7),
  ('Bt.4Q7Flg22: Flg22 polypeptide (22 amino acids) from flagellin of Bacillus thuringiensis strain 4Q7 (DRLSSGKRINSASDDAAGLAIA; listed as Bacillus thuringiensis)', 'reactive oxygen species (ROS) production in corn tissue', 100),
  ('EKLSSGQRINSASDDAAGLAIS (listed as Bacillus aryabhattai) [SEQ ID NO: 289]', 'reactive oxygen species (ROS) production in corn tissue', 27.1),
  ('LRISTGYRINSAADDPAGLAIS (listed as Lysinibacillus fusiformis) [SEQ ID NO: 583]', 'reactive oxygen species (ROS) production in corn tissue', 59.3),
  ('NRLSSGKRINTAADDAAGLAIS (listed as Burkholderia ubonensis) [SEQ ID NO: 538]', 'reactive oxygen species (ROS) production in corn tissue', 92.9),
  ('LRISSGYRINSAADDPAGLAIS (Lysinibacillus spp.) [SEQ ID NO: 582]', 'reactive oxygen species (ROS) production in corn tissue', 60.1),
  ('EKLSSGYKINRASDDAAGLAIS (Lysinibacillus spp.) [SEQ ID NO: 581]', 'reactive oxygen species (ROS) production in corn tissue', 36.4),
  ('LRLSSGYRINSAADDAAGLAIS (listed as Lysinibacillus sp.) [SEQ ID NO: 291]', 'reactive oxygen species (ROS) production in corn tissue', 26.6);

* * *

# System: reactive oxygen species (ROS) production in soybean leaf tissue
# assayComment: ROS activity assay in soybean leaf tissue (luminol/horseradish peroxidase, RLU)
# Format: cell-based
# assayContext: Table 33; 100 nM polypeptide; RLU relative to native Bt.4Q7Flg22 = 100
Quick rule for you: Avg. Activity (%) Soybean (297 R4) 100 nM polypeptide at 80% or higher means y, lower means n.

INSERT INTO results (substance, group) VALUES
  ('NRLSSGKRINSAADDAAGLAIA [SEQ ID NO: 295]', 'y'),
  ('DRLSSGKRINNASDDAAGLAIA [SEQ ID NO: 294]', 'y'),
  ('Bt.4Q7Flg22: Flg22 polypeptide (22 amino acids) from flagellin of Bacillus thuringiensis strain 4Q7 (DRLSSGKRINSASDDAAGLAIA; listed as Bacillus thuringiensis)', 'y'),
  ('EKLSSGYKINRASDDAAGLAIS (Lysinibacillus spp.) [SEQ ID NO: 581]', 'y'),
  ('LRISTGYRINSAADDPAGLAIS (listed as Lysinibacillus fusiformis) [SEQ ID NO: 583]', 'y'),
  ('L spp.Flg22-L2 (EKLSSGLRINRAGDDAAGLAIS)', 'y'),
  ('Bp.Flg22 (TRLSSGKRINSAADDAAGLAIS)', 'n'),
  ('TRLSSGLKINSAKDDAAGLQIA (listed as Pseudomonas syringae) [Flg22-PSA, Flg22 from Pseudomonas syringae pv. actinidiae]', 'y'),
  ('EKLSSGQRINSASDDAAGLAIS (listed as Bacillus aryabhattai) [SEQ ID NO: 289]', 'n'),
  ('NRLSSGKRINTAADDAAGLAIS (listed as Burkholderia ubonensis) [SEQ ID NO: 538]', 'y'),
  ('LRLSSGYRINSAADDAAGLAIS (listed as Lysinibacillus sp.) [SEQ ID NO: 291]', 'n'),
  ('P spp.Flg22-B6 (GKLSSGLRINGASDDAAGLAIS)', 'y'),
  ('NRLSSGKQINSASDDAAGLAIA (listed as Bacillus manliponensis) [SEQ ID NO: 290]', 'n'),
  ('A spp.Flg22-B4 (ERLSSGYRINRASDDAAGLAIS)', 'y'),
  ('GKLSSGLRINGASDDAAGLAIS (listed as Paenibacillus sp.) [Pa.Flg22]', 'y'),
  ('LRISSGYRINSAADDPAGLAIS (Lysinibacillus spp.) [SEQ ID NO: 582]', 'y');

* * *

Entries and their measured Avg. Activity (%) Soybean (297 R4) 100 nM polypeptide follow.
# Tested on: reactive oxygen species (ROS) production in soybean leaf tissue
# assayComment: ROS activity assay in soybean leaf tissue (luminol/horseradish peroxidase, RLU)
# Assay type: cell-based
# assayContext: Table 35, single polypeptides and combinations; 100 nM polypeptide; Bt.4Q7Flg22 = 100
measuredQuantity: Avg. Activity (%) Soybean (297 R4) 100 nM polypeptide

INSERT INTO results (substance, subjectoftest, result) VALUES
  ('P spp.Flg22-B6 (GKLSSGLRINGASDDAAGLAIS)', 'reactive oxygen species (ROS) production in soybean leaf tissue', '132.95%'),
  ('NRLSSGKRINSAADDAAGLAIA [SEQ ID NO: 295]', 'reactive oxygen species (ROS) production in soybean leaf tissue', '97.59%'),
  ('L spp.Flg22-L2 (EKLSSGLRINRAGDDAAGLAIS)', 'reactive oxygen species (ROS) production in soybean leaf tissue', '138.86%'),
  ('Bt.4Q7Flg22: Flg22 polypeptide (22 amino acids) from flagellin of Bacillus thuringiensis strain 4Q7 (DRLSSGKRINSASDDAAGLAIA; listed as Bacillus thuringiensis)', 'reactive oxygen species (ROS) production in soybean leaf tissue', '100%'),
  ('A spp.Flg22-B4 (ERLSSGYRINRASDDAAGLAIS)', 'reactive oxygen species (ROS) production in soybean leaf tissue', '106.37%');
